All figures here come from patent US20190338026A1.

Target: T1, LAIR1 on LAIR1 reporter cells (human, UniProt Q6GTX8 22-165, limits assumed); note: test concentration or dose not given here
T1 chain: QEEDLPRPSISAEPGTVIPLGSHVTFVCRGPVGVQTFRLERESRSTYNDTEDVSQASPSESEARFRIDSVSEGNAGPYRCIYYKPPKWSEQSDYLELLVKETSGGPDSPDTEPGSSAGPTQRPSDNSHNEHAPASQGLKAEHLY
Assay: cell-based or functional assay
measure: GFP+% of LAIR1 reporter cells, collagen I coated, soluble Ab (%)
Quick note: give the figure in %, leave out the unit.

Ask | Give GFP+% of LAIR1 reporter cells, collagen I coated, soluble Ab for LA-60 (antibody, V domains shown, Rabbit monoclonal IgG; also called mAb LA-60) VH: EQSLESGGGLVQPEGSLTLTCTASGFSFSNSYYMCWVRQAPGKGLEWIGCIYTGSSSGTYYASWAEGRFTISKTPSTTVTLQMTSLTAADTATYFCSRKLTNFNGAYLDLWGPGTLVTVSS VL: ELVLTQTPASVEAAVGGTVTIKCQASQSIYSYLAWYQQKPGQPPKVLIYKASTLASGVPSRFKGSGSGTEFTLTISDLECADAATYYCQNNNGGSDNTFGGGTEVVVK
Reply | 6.5
